test system: L1210 leukemia ip in BDF1 mice, survival T/C; test: NCI In Vivo Anticancer Drug Screen. Data for tumor model L1210 Leukemia (intraperitoneal) in B6D2F1 (BDF1) mice; settings: endpoint: mean survival time; dose: 100.0 mg/kg/injection; schedule: Q01DX009 (ip); vehicle: Klucel (hydroxypropylcellulose) (HPC); higher = longer survival
Inconclusive results and toxic doses are left out.
MEASURED_ENDPOINT: T/C

Solved entries (count: 2):
- COMPOUND: "O=C(Nc1cccc(F)c1)Nc1cc([N+](=O)[O-])ccc1Cl"
  TESTED_SYSTEM: "L1210 leukemia ip in BDF1 mice, survival T/C"
  T/C: "97 % of control"
- COMPOUND: "Nc1ccc(OC(F)(F)C(F)Cl)cc1 (configuration not stated)"
  TESTED_SYSTEM: "L1210 leukemia ip in BDF1 mice, survival T/C"
  T/C: "97 % of control"

Look up T/C for this compound: N=C(N)SCC(O)c1ccccc1 (configuration not stated)
104 % of control

Another compound: Cc1cccc(SC(=O)Nc2cc([N+](=O)[O-])ccc2Cl)c1
92 % of control

Another compound: CCCCNC(=O)Nc1ccc(OC)cc1
103 % of control

Another compound: COC(=O)C1CCCC23CC(CC12)C(C)(C)C3Br (configuration not stated)
94 % of control

Another compound: O=c1[nH]c2ccsc2c(=O)n1OS(=O)(=O)c1ccccc1
100 % of control

Another compound: CCCCN1C(=O)C2CC=C3C=CN4C(C3C2C1=O)C1C(=O)N(CCCC)C(=O)C1C41CC(=O)N(CCCC)C1=O (configuration not stated)
86 % of control

Another compound: O=c1[nH]c2ncccc2c(=O)n1O
96 % of control

Another compound: CCOC(=O)Nc1ccc(OC)cc1
96 % of control

Another compound: CC(=O)OI(OC(C)=O)c1ccc(-c2ccccc2)cc1
91 % of control

Another compound: CCOC(=O)/C(C#N)=C\c1ccc(N(C)CCC#N)cc1
100 % of control

###

Entries and their measured T/C follow.
test system: L1210 leukemia ip in BDF1 mice, survival T/C; assay: NCI In Vivo Anticancer Drug Screen. Data for tumor model L1210 Leukemia (intraperitoneal) in B6D2F1 (BDF1) mice; conditions: endpoint: mean survival time; dose: 12.5 mg/kg/injection; schedule: Q01DX009 (ip); vehicle: saline; higher = longer survival
Inconclusive results and toxic doses are left out.

Solved entries (count: 4):
- MOLECULE: "COC(=O)[C@H]1[C@H]2C[C@@H]3c4[nH]c5cc(OC)ccc5c4CCN3C[C@H]2C[C@@H](OC(=O)c2cc(OC)c(OC)c(OC)c2)[C@@H]1OC"
  TESTED_SYSTEM: "L1210 leukemia ip in BDF1 mice, survival T/C"
  T/C: "104 % of control"
- MOLECULE: "CCCCCCNC(C)=O"
  TESTED_SYSTEM: "L1210 leukemia ip in BDF1 mice, survival T/C"
  T/C: "92 % of control"
- MOLECULE: "CC1CC(O)C([N+](=O)[O-])C(O)C1 (stereo not given)"
  TESTED_SYSTEM: "L1210 leukemia ip in BDF1 mice, survival T/C"
  T/C: "102 % of control"
- MOLECULE: "CC1(C)N=C(N)N=C(N)N1c1ccc(CNC(=O)Nc2cccc(S(=O)(=O)F)c2)cc1"
  TESTED_SYSTEM: "L1210 leukemia ip in BDF1 mice, survival T/C"
  T/C: "119 % of control"

--- query ---
Look up T/C for this molecule: c1cc[n+]2c(c1)-c1cccc[n+]1CC2
104 % of control
